Form field: mean fluorescence intensity (one value per entry).
target: T1, human CD47, full length, on transfected cells (human, UniProt Q08722 19-323); assay: FACS CHOK1-hCD47; Ab 0.32 nM
T1 construct: whole, on cells; also called CHOK1-hCD47
Write no unit; give the number alone.

| binder | propertyName | number |
| --- | --- | --- |
| 51E2F11 (antibody, V domains shown, Murine hybridoma antibody purified on protein G) VH: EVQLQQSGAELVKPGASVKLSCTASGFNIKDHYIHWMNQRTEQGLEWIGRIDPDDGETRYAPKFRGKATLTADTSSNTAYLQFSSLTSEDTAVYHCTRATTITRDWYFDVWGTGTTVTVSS VL: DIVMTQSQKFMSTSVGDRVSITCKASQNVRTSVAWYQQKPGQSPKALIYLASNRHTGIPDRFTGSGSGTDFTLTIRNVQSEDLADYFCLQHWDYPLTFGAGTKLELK | mean fluorescence intensity | 2000 |

Ask: Please look up its mean fluorescence intensity: 4D10B11 (antibody, V domains shown, Murine hybridoma antibody purified on protein G) VH: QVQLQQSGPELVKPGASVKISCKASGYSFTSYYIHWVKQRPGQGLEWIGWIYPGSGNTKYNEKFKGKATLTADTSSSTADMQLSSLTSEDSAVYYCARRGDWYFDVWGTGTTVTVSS VL: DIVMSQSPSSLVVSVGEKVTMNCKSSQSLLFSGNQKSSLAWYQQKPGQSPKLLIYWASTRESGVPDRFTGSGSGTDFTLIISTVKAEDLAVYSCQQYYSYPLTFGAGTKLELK
Result: 1710

Ask: Also, 95E2D10 (antibody, V domains shown, Murine hybridoma antibody purified on protein G) VH: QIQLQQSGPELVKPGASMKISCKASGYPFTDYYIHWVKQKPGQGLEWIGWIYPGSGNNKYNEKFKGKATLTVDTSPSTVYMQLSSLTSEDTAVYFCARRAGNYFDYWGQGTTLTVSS VL: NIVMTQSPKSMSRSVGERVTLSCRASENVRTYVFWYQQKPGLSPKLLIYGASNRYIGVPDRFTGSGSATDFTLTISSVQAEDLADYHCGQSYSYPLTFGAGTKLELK please.
Result: 2490
